IC50, UniProt:P24941: measured values
property.name: IC50 (nM)

Solved cases (2 shown):
> print(dat)
                      smiles.representation  property.name  value.observed
1  N[C@H](CNc1nnc(-c2ccc3[nH]ncc3c2)s1)Cc1ccc(Cl)cc1           IC50              41
2  Cc1n[nH]c2ccc(-c3nnc(NC[C@@H](N)Cc4ccccc4)s3)cc12           IC50              72

A = N[C@H](CNc1nnc(-c2ccc3[nH]ncc3c2)s1)Cc1ccc(Cl)cc1Cl
B = N[C@H](CNc1nnc(-c2ccc3cnccc3c2)s1)Cc1ccc(C(F)(F)F)cc1
C = N[C@H](CNc1nnc(-c2ccc3[nH]ncc3c2)s1)Cc1ccc(C(F)(F)F)cc1
QUERY: rank_up(items): orders items by reported IC50 in ascending numerical order. Kindly provide the labels arranged according to the requested ordering.
RESULT: C, B, A
